Just for reference, patent US20240417469A1 is where these values come from.

Target: T1, human CD3 protein (human, UniProt P07766 23-126; P04234 22-105)
T1 construct: ELISA coating protein; also called Human CD3D & CD3E Heterodimer Protein
T1 sequence (P07766 23-126 limits assumed, chain 1 of 2): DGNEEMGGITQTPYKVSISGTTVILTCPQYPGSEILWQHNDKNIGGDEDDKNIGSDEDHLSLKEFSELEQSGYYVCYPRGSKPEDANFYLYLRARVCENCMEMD
T1 sequence (P04234 22-105 limits assumed, chain 2 of 2): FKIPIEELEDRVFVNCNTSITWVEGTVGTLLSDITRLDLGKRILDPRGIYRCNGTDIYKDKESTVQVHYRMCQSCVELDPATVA
Experiment: ELISA, plate-coated CD3;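 also: binding to plate-immobilized human CD3 protein, bound antibody detected with peroxidase-labelled anti-human IgG and TMB, read as absorbance at 450 nm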
test readout: EC50 (ng/mL)
Report the value in ng/mL with no unit label.

Returns the measured EC50 for the input binder. Input: Hu153A6B1-2 (antibody, V domains shown, humanized mAb) VH: EVQLQESGPGLVKPSETLSLTCTVSGGSISSYNIHWVRQPPGKGLEWIGRIRYNGDTSYNSALKSRVTISRDTSKNQFSLKLSSVTAADTAVYYCARGPYGGSREPLFDYWGQGTMVTVSS VL: DIQMTQSPSSLSASVGDRVTITCKTSQNINKYLNWYQQKPGKAPKLLIYTTNNLQTGVPSRFSGSGSGTDFTLTISSLQPEDFATYYCLQHGSGYTFGQGTKLEIK
3.39

Returns the measured EC50 for the input binder. Input: Hu153A6B1-6 (antibody, V domains shown, humanized mAb) VH: EVQLQESGPGLVKPSETLSLTCTVSGFSLTSYNIHWVRQPPGKGLEWMGRIRYNGDTSYNSALKSRLTISRDTSKNQVSLKLSSVTAADTAVYYCTRGPYGGSREPLFDYWGQGTMVTVSS VL: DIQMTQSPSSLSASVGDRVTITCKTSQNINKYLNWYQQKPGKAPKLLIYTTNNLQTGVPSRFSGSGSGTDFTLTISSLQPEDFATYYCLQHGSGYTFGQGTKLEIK
2.99

Returns the measured EC50 for the input binder. Input: Hu192A7B9-9 (antibody, V domains shown, humanized mAb) VH: EVQLQESGPGLVKPSETLSLTCTVSGGSISSYNVHWVRQPPGKGLEWMGRMRYNGDTSYNSALKSRLTISRDTSKNQFSLKLSSVTAADTAVYYCARGPRGGYYSALFDYWGQGTMVTVSS VL: DIQMTQSPSSLSASVGDRVTITCKASQNINRYLNWYQQKPGKAPKLLISIANSLQTGVPSRFSGSGSGTDFTLTISSLQPEDFATYYCLQHNSWYTFGQGTKLEIK
5.58
